Item-by-item account of pEC50
Assayed Target: hKv7.2/hKv7.3 (Homo sapiens, UniProt O43525+O43526)
Construct: P2A remnant (self-cleaving peptide between Kv7.3 and Kv7.2) (C)
Assay Remarks: Thallium influx assay for potassium channel activation
Cond: HEK-hKv7.2/hKv7.3 cells; FLIPR Potassium Assay kit; AUC readout normalized to a reference compound
Recall that pEC50 is obtained by taking minus log10 of the concentration measured in molar.

C[C@H](NC(=O)C[C@@H](O)C1(C(F)F)CC1)c1cccc(OC(F)(F)F)c1 (single isomer, unassigned) [Example 14b]; 5.18
C[C@H](NC(=O)CC(C)(O)CC(F)(F)F)c1cccc(OC(F)(F)F)c1 (single isomer, unassigned) [Example 13b]; 5.54
CC[C@H](NC(=O)CC(O)C(C)(C)C)c1cccc(OC(F)(F)F)c1 (single isomer, unassigned) [Example 8a]; 6.37
C[C@H](NC(=O)CC(O)C(C)(C)C)c1cccc(OC(F)F)c1 (single isomer, unassigned) [Example 3a]; 4.96
C[C@H](NC(=O)CC(O)C1CC(F)(F)C1)c1cccc(OC(F)(F)F)c1 (single isomer, unassigned) [Example 11b]; 5.35

Given the entry CC(C)C(O)(CC(=O)N[C@@H](C)c1cccc(OCC(F)(F)F)c1)C(F)(F)F (single isomer, unassigned) [Example 7a] , report its measured pEC50.
6.66

Same for C[C@H](NC(=O)CC(O)C1(C(F)(F)F)CC1)c1cccc(OC(F)(F)F)c1 (single isomer, unassigned) [Example 16b]
5.00

Same for C[C@H](NC(=O)CC(O)C1(C(F)(F)F)CC1)c1cccc(OC(F)(F)F)c1 (single isomer, unassigned) [Example 16a]
5.52

Same for C[C@H](NC(=O)CC(O)C(C)(C)C)c1cccc(C(F)(F)F)c1 (single isomer, unassigned) [Example 4a]
4.96

Same for CC(C)C(O)CC(=O)N[C@@H](C)c1cccc(OC(F)(F)F)c1 (single isomer, unassigned) [Example 20a]
5.51

Same for C[C@H](NC(=O)CC(C)(O)C1CC1)c1cccc(OCC(F)(F)F)c1 (single isomer, unassigned) [Example 18b]
5.15

Same for C[C@H](NC(=O)CC(C)(O)C1CC1)c1cccc(OCC(F)(F)F)c1 (single isomer, unassigned) [Example 18a]
5.89

Same for C[C@H](NC(=O)CC(C)(O)C(F)(F)C(F)F)c1cccc(OC(F)(F)F)c1 (single isomer, unassigned) [Example 10b]
5.89
